# maps each entry to its composite z-score
- assayName: probe aEGFR binding to arrayed compounds – biochemical, biotinylated probe, 635/667 nm fluorescence, primary screen (AID 1097);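 further: probe is a biotinylated anti-EGFR antibody binding compounds printed on slides; score combines fluorescence near 667 nm and signal to noise of each spot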
- testConditions: small-molecule microarray, higher = more signal

givenSmiles: CCCC=C(CCC)[C@@H](NS(=O)(=O)c1ccccc1)c1ccc(C(F)(F)F)cc1
composite z-score: 0.132

givenSmiles: O=C1c2ccccc2[C@](Cc2ccccc2I)(C(=O)NC2CC2)[C@H](c2ccc(CO)cc2)N1Cc1ccccc1Cl
composite z-score: 0.178

givenSmiles: O=C1O[C@H](c2ccccc2)[C@H](c2ccccc2)N2[C@H]1[C@@H](C(=O)N1CCCCCCC1)[C@]1(C(=O)Nc3ccc(C#CCCO)cc31)[C@H]2c1ccc(OCCO)cc1
composite z-score: 1.28

givenSmiles: C=CC[C@]1(C(=O)N2CCOCC2)N=C(c2ccc(OCCCO)cc2)O[C@H]1c1ccccc1CN=[N+]=[N-]
composite z-score: -0.0111

givenSmiles: COC(=O)[C@]1(Cc2ccccc2N=[N+]=[N-])N=C(c2ccc(OCCCO)cc2)O[C@@H]1c1ccccc1
composite z-score: -0.136

givenSmiles: C=CCOC(=O)[C@@H]1[C@H]2C(=O)O[C@H](c3ccccc3)[C@H](c3ccccc3)N2[C@H](c2ccc(OCCOC(=O)[C@@H]3C[C@@H]4C(=O)N[C@@H](CCCCNC(C)=O)C(=O)N4[C@@H]3c3ccc(O)cc3)cc2)[C@@]12C(=O)Nc1ccc(I)cc12
composite z-score: 0.15

---

Consider the following molecules and their measured composite z-score readings.
- Test system: Human papillomavirus type 1a protein E7 (residues 44-93)
- assayName: small molecules binding HPV E7 44-93 – biochemical, small-molecule microarray, residues 44-93, 635 nm fluorescence, primary screen (AID 1108);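 further: E7 fragment applied at 1 µg/mL in TBST for 1 h at 4 C; score combines spot fluorescence with its signal to noise ratio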
- testConditions: fluorescence 635 nm, higher = more signal

molecule: C=CCC(OC(C)=O)[C@@H]1[C@@H](N(Cc2cc3ccccc3o2)C(=O)Cc2ccc(OC)cc2)c2cc(OCCCO)ccc2N1C(=O)c1ccc(-c2ccccc2)cc1 (some centres not stated)
target: Human papillomavirus type 1a protein E7 (residues 44-93)
composite z-score: 0.0962
--
molecule: COc1cc(NN2C(C(O)c3ccc(I)cc3)C=CC3C(=O)N(C)C(=O)C32)cc(OC)c1OC (configuration not stated)
target: Human papillomavirus type 1a protein E7 (residues 44-93)
composite z-score: 0.539
--
molecule: COc1cccc(C[C@H]2C[C@@H](CO[Si](C(C)C)(C(C)C)C(C)C)N3C(=O)[C@]4(C(C)=O)O[C@]23[C@H]2C(=O)N(C)C(=O)[C@H]24)c1
target: Human papillomavirus type 1a protein E7 (residues 44-93)
composite z-score: 1.01
--
molecule: COC(=O)C(CC#Cc1ccc2c(c1)[C@]1(C(=O)N2)[C@H](c2ccc(O)cc2)N2[C@H](c3ccccc3)[C@H](c3ccccc3)OC(=O)[C@H]2[C@@H]1C(N)=O)C(=O)OC
target: Human papillomavirus type 1a protein E7 (residues 44-93)
composite z-score: -0.863
--
molecule: COCCCNC(=O)[C@@]1(Cc2ccccc2I)c2ccccc2C(=O)N(Cc2ccccc2Cl)[C@H]1c1ccc(CO)cc1
target: Human papillomavirus type 1a protein E7 (residues 44-93)
composite z-score: 1.16
--
molecule: CC(C)NC(=O)[C@@]1(Cc2ccccc2I)c2ccccc2C(=O)N(Cc2ccccc2C(F)(F)F)[C@H]1c1ccc(CO)cc1
target: Human papillomavirus type 1a protein E7 (residues 44-93)
composite z-score: -0.358
--
molecule: CN(C)CCCCCCNC(=O)[C@@H]1C[C@@H]2C(=O)NCC(=O)N2[C@@H]1c1ccc(O)cc1
target: Human papillomavirus type 1a protein E7 (residues 44-93)
composite z-score: 1.33
